These data points were gathered from the supplement of paper PMC10307832.

- Tested on: NCI-H2087
- assayExplanation: relative viability (nuclei count vs DMSO), 5 days (fraction); higher = more cells survive
- assaySetup: first compound 0.2 µM
metric: relative viability
A bare number is all that is needed in reply.

{"molecule": "COCC1(CO)C(=O)C2CCN1CC2 (centres undefined) [PRIMA-1MET] + CC(C)C[C@H](NC(=O)[C@H](Cc1ccccc1)NC(=O)c1cnccn1)B(O)O [Bortezomib] (partner 0.002 µM)", "relative viability": 1}
{"molecule": "COCC1(CO)C(=O)C2CCN1CC2 (centres undefined) [PRIMA-1MET] + Cc1nc(Nc2ncc(C(=O)Nc3c(C)cccc3Cl)s2)cc(N2CCN(CCO)CC2)n1 [Dasatinib] (partner 0.075 µM)", "relative viability": 0.471}
{"molecule": "COCC1(CO)C(=O)C2CCN1CC2 (centres undefined) [PRIMA-1MET] + CS(=O)(=O)CCNCc1ccc(-c2ccc3ncnc(Nc4ccc(OCc5cccc(F)c5)c(Cl)c4)c3c2)o1 [Lapatinib] (partner 2 µM)", "relative viability": 0.848}

relative viability for COCC1(CO)C(=O)C2CCN1CC2 (centres undefined) [PRIMA-1MET] + N=C(N)NC(=N)NCCc1ccccc1 [Phenformin] (partner 250 µM) ? 0.315
